biological target: UniProt P10635; assay: CYP inhibition; type: in vitro ADME
Sequence (P10635 whole entry): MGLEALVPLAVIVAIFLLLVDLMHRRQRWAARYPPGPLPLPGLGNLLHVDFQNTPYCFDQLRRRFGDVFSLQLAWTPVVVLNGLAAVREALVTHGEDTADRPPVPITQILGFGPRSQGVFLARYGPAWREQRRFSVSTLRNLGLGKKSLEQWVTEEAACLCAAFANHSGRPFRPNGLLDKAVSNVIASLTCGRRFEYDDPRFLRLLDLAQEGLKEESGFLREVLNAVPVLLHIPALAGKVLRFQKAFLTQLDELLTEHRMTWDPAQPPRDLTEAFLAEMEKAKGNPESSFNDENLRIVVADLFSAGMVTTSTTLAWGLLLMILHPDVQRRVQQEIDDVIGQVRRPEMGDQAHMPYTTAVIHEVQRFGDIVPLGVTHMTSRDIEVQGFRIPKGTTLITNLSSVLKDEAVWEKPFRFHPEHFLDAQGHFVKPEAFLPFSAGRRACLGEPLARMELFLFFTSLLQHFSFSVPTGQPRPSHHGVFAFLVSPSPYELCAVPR
Quantity measured: IC50

**Q:** Requested read-out IC50, target or system UniProt P10635, entry O=[N+]([O-])c1cc(C(F)(F)F)cc2c(=S)nc(N3CCC4(CC3)OCCO4)sc12
**A:** > 10 µM

====

assay: plasma protein binding; assay type: in vitro ADME; conditions: mouse
Quantity measured: fraction unbound

**Q:** Recorded fraction unbound for C[C@H]1COC2(CCN(c3nc(=O)c4cc(C(F)(F)F)cc([N+](=O)[O-])c4s3)CC2)O1 , please?
**A:** < 0.01

====

target: UniProt:P33261; assay: CYP inhibition; format: in vitro ADME; settings: read-out: CYP inhibition IC50, CYP2C19
Sequence (P33261 whole entry): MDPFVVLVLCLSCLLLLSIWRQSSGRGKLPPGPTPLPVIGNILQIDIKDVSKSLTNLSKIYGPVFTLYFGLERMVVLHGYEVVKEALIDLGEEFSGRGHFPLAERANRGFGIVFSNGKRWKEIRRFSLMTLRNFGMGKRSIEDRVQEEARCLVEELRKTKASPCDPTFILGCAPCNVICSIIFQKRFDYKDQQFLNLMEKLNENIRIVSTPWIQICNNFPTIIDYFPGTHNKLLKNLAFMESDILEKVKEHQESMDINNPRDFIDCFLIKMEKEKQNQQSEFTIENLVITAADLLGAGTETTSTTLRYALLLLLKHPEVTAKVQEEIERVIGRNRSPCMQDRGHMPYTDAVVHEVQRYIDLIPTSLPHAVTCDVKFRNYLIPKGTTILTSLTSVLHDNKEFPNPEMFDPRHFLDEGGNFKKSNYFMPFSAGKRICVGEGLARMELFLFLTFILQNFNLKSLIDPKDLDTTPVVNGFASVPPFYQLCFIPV
pIC50: −log10 of the molar value.
Quantity measured: pIC50

**Q:** Recorded pIC50 for C[C@H]1COC2(CCN(c3nc(=O)c4cc(C(F)(F)F)cc([N+](=O)[O-])c4s3)CC2)O1 , please?
**A:** < 5.00

====

Answer each item with its documented MIC.
tested on: MDR-TB clinical isolates; experiment: microbe, parasite or virus in culture; format: cell-based; details: Mycobacterium tuberculosis, read-out: MIC, MDR-TB strain M4

**Q:** Recorded MIC for CO[C@H]1/C=C/O[C@@]2(C)Oc3c(C)c(O)c4c(O)c(c(/C=N/N5CCN(C)CC5)c(O)c4c3C2=O)NC(=O)/C(C)=C\C=C\[C@H](C)[C@H](O)[C@@H](C)[C@@H](O)[C@@H](C)[C@H](OC(C)=O)[C@@H]1C [RMP, rifampicin] , please?
**A:** 64 µg/mL

**Q:** Recorded MIC for O=[N+]([O-])c1cc(C(F)(F)F)cc2c(=S)nc(N3CCC4(CC3)OCCO4)sc12 [SKLB-TB1001] , please?
**A:** < 0.0156 µg/mL

**Q:** Recorded MIC for [H]/N=C(/N)N[C@H]1[C@H](O)[C@@H](O)[C@H](O[C@@H]2O[C@@H](C)[C@](O)(C=O)[C@H]2O[C@@H]2O[C@@H](CO)[C@H](O)[C@@H](O)[C@@H]2NC)[C@@H](N/C(N)=N\[H])[C@@H]1O [SM, streptomycin] , please?
**A:** 8 µg/mL

**Q:** Recorded MIC for CC[C@@H](CO)NCCN[C@@H](CC)CO [EMB, ethambutol] , please?
**A:** 2 µg/mL

**Q:** Recorded MIC for NNC(=O)c1ccncc1 [INH, isoniazid] , please?
**A:** 1 µg/mL

====

experiment: pharmacokinetic study in SD rats; type: in vivo; details: female, rat, plasma, po; SD rats, p.o., 5 mg/kg, t = 0 to infinity; read-out: AUC
Quantity measured: AUC (ng·h/mL)
Report as a plain number; the unit ng·h/mL is understood.

**Q:** Recorded AUC for O=[N+]([O-])c1cc(C(F)(F)F)cc2c(=S)nc(N3CCC4(CC3)OCCO4)sc12 [SKLB-TB1001] , please?
**A:** 847

====

Target: CYP3A4 (Homo sapiens, UniProt P08684)
Sequence (P08684 whole entry): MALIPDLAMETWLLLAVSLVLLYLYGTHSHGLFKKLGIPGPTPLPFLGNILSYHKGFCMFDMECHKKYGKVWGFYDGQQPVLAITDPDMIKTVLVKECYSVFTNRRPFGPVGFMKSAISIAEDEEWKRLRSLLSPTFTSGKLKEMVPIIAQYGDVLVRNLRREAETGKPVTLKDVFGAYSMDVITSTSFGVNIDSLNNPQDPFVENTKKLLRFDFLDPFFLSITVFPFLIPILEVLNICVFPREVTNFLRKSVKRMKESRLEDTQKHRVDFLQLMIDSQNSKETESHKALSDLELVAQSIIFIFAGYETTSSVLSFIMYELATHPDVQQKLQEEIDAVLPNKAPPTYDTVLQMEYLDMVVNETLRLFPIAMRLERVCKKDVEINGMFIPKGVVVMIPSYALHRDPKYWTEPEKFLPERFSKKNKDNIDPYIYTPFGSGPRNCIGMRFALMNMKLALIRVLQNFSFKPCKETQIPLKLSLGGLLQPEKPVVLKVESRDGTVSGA
Experiment: CYP inhibition
Format: in vitro ADME
Experimental: The In vitro ADME/T assays were conducted at WuXi AppTec Co. Ltd.(Shanghai). ClogP was calculated with ChemDraw Ultra 14.0. […]
Quantity measured: IC50

**Q:** Recorded IC50 for O=[N+]([O-])c1cc(C(F)(F)F)cc2c(=S)nc(N3CCC4(CC3)OCCO4)sc12 [SKLB-TB1001] , please?
**A:** > 10 µM
